Quick list: inhibition at 1 µM per entry.
Target: human μ opiate receptor (Homo sapiens, UniProt P35372)
Construct: purchased PerkinElmer Life Sciences, Zaventem, Belgium RB-HOM; host or cells: CHO-K1 cells (membrane preparation)
Sequence (P35372 whole entry): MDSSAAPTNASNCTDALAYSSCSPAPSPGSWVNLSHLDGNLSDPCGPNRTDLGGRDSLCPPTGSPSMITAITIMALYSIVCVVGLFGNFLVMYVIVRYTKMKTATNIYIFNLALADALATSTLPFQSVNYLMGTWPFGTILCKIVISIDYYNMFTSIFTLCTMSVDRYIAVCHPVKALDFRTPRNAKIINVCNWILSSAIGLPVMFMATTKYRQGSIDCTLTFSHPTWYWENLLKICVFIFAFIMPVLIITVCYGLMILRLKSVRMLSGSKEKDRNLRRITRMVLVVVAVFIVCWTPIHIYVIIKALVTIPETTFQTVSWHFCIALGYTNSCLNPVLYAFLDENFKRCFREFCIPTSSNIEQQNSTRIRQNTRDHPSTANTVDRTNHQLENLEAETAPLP
Experiment: Affinity for the human μ opiate receptor ([3H]-naloxone displacement, CHO-K1 receptor membrane preparation, SPA)
Format: binding
Details: test concentration of 1 μM; read-out: μ (binding on the μ opioid receptor, % inhibition)

>  <COMPOUND>
COc1ccc(S(=O)(=O)N2CCCCC2COCC(=O)NCCC2CCC(C(c3cccs3)N(C)C)CC2)c(OC)c1 (stereo not shown)

>  <inhibition at 1 µM>
92%

$$$$
>  <COMPOUND>
COc1cc(C)c(S(=O)(=O)N(CCOCC(=O)NCC2CCC(C(c3ccccc3)N(C)C)CC2)Cc2ccccc2)c(C)c1 (stereo not shown)

>  <inhibition at 1 µM>
90%

$$$$
>  <COMPOUND>
CN(C)C(c1cccs1)C1CCC(CNC(=O)COCCN(C)S(=O)(=O)c2ccc(F)cc2)CC1 (stereo not shown)

>  <inhibition at 1 µM>
95%

$$$$
>  <COMPOUND>
CN(C)C(c1cccc(F)c1)C1CCC(CCNC(=O)COCCN(C)S(=O)(=O)c2ccc(Cl)cc2Cl)CC1 (stereo not shown)

>  <inhibition at 1 µM>
92%

$$$$
